Listed below: pIC50 values for each entry.
Target: human CRF receptor (Homo sapiens)
Sequence (P34998 24-415): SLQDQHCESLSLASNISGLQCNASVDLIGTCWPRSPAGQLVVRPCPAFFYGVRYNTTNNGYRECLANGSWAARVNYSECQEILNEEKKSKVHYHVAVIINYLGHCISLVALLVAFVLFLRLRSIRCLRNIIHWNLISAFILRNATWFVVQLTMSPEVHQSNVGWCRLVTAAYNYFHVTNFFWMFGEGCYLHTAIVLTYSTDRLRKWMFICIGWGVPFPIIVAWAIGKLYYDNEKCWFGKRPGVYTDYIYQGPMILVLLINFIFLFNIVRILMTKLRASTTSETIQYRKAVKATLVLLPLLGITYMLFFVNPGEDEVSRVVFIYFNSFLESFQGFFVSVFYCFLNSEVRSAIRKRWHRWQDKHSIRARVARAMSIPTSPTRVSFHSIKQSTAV
Experiment: CRF binding inhibitory rate / receptor binding experiment with 125I-CRF
Details: human CRF receptor expressing CHO cellular membrane fraction, 50 pM 125I-CRF (ovine CRF), room temperature 1.5 hr, 0.05 nM to 10 μM of compound; read-out: IC50 values (CRF binding inhibition)
pIC50: −log10 of the molar value.

[
  {
    "COMPOUND": "CC=C(CC)c1cccc2nc(Cc3c(C)cc(C)cc3C)n(C)c12 (mixture of isomers)",
    "pIC50": "> 6.00"
  },
  {
    "COMPOUND": "CCN(CC)c1cccc2nc(Cc3c(C)cc(C)cc3C)n(C)c12",
    "pIC50": "> 6.00"
  },
  {
    "COMPOUND": "CCC(O)(CC)c1cccc2nc(Cc3c(Cl)cc(C(F)(F)F)cc3Cl)n(C)c12",
    "pIC50": "> 6.00"
  },
  {
    "COMPOUND": "CCC(O)(CC)c1cccc2nc(Cc3c(C)cc(C)cc3C)n(C)c12",
    "pIC50": "> 6.00"
  },
  {
    "COMPOUND": "CCC(CC)c1cccc2nc(Cc3c(C)cc(C)cc3C)n(C)c12",
    "pIC50": "> 6.00"
  },
  {
    "COMPOUND": "CCC(CC)c1cccc2nc(C(O)c3c(C)cc(C)cc3C)n(C)c12 (stereo not drawn)",
    "pIC50": "> 6.00"
  }
]
